target: Voltage-dependent N-type calcium channel subunit alpha-1B (Homo sapiens) (UniProt Q00975); experiment: disruptors of CaV2.2 binding to Mint1 – biochemical, HTRF (AID 2073); settings: HTRF protein-protein interaction, Mint1-CaV2.2; at 20 µM; active compounds read high
Sequence (Q00975 whole entry, looked up): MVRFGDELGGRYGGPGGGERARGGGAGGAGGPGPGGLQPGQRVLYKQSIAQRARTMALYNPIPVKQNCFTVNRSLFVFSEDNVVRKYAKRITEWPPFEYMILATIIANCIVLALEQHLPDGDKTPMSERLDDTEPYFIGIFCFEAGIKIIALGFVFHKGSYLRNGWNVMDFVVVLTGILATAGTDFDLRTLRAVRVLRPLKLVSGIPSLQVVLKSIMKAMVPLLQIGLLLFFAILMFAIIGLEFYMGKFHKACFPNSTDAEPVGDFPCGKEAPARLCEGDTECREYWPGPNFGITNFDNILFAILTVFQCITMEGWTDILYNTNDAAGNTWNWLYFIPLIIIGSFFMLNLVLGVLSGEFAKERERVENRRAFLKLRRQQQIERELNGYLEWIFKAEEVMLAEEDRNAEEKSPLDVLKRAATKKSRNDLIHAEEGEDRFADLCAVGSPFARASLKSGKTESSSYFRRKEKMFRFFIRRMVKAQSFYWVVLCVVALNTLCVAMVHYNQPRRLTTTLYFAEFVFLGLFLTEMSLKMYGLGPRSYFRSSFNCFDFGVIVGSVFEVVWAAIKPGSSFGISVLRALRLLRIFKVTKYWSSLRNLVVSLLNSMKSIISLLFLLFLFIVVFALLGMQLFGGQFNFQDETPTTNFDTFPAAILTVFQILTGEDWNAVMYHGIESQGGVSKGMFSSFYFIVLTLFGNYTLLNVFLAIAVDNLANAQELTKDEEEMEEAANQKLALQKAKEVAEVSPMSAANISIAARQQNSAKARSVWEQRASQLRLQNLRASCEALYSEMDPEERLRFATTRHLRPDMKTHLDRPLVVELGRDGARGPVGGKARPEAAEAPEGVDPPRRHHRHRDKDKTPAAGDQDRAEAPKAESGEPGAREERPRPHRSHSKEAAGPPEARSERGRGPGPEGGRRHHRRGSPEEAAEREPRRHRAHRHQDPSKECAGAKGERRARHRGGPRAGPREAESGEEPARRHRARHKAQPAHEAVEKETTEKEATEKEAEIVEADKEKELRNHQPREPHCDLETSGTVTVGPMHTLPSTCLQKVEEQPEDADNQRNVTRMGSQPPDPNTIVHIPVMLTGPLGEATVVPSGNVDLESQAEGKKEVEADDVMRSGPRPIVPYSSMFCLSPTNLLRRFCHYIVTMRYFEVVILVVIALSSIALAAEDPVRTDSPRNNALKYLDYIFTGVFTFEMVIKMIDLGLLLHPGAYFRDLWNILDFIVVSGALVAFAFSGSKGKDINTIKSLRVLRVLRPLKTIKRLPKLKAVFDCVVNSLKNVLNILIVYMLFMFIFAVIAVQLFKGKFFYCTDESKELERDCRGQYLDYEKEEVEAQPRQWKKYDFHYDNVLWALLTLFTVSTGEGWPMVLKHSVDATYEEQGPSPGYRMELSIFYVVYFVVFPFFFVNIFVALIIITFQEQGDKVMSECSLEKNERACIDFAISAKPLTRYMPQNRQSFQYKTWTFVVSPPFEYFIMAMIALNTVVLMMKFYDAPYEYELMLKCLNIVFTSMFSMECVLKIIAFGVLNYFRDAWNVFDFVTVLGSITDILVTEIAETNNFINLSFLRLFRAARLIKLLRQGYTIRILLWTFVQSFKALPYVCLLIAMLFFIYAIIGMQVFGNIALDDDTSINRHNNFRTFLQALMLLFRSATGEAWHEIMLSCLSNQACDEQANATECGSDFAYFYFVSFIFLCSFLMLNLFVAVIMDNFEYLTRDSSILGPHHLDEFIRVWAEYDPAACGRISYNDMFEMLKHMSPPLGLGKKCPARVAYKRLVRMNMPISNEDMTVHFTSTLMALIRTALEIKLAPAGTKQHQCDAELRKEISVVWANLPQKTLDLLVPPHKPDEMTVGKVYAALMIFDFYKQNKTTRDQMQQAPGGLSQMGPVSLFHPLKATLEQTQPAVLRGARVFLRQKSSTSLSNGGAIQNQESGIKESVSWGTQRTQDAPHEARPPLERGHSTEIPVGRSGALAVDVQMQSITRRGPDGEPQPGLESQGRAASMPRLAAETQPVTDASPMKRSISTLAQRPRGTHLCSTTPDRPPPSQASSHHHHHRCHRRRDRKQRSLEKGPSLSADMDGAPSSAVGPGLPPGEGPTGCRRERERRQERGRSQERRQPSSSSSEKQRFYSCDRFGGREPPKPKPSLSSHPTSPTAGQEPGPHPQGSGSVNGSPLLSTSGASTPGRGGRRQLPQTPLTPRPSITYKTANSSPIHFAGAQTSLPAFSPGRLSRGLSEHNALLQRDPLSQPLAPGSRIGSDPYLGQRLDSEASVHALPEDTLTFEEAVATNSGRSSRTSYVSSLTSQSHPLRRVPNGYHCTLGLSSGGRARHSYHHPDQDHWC
The whole screen tested about 290,000 compounds, of which about 570 (0.2%) were called active. Roughly 1% stayed inconclusive and do not appear here. The sample as a whole holds a higher share of actives than the screen did.
Parameter Measured: inhibition (%)
Numeric only. Scale: %

Solved cases below.
Compound | Output Unit | inhibition
Cc1ccc(C(=S)NCS(=O)(=O)c2ccc(C)cc2)cc1 | % | 28
CCOC(=O)c1cn2nc(Oc3cccc(F)c3)ccc2n1 | % | 4.6
CN(C)CCNc1nc2c(c(=O)[nH]c(=O)n2C)n1CC(O)COc1ccc(Cl)cc1 (configuration not stated) | % | -3

Specify inhibition for CCN(C(=O)COC(=O)c1c(C)nn(-c2ccccc2)c1C)C1CCS(=O)(=O)C1 (configuration not stated) and stop.
6.4

Report inhibition, nothing else, for this compound: `CSc1nc(-c2ccc(C)cc2)[nH]c1S(=O)(=O)c1ccccc1`
-18.4

Give the measured inhibition for CC(C)c1ccc(OCC(O)CN2CCCC2)cc1 (configuration not stated)
-4.2
